Measured values drawn from ChEMBL document CHEMBL1124663 for this set.

Test system: Mus musculus
Assay: Body Weight Difference (BWD) of test animals administered with 100 mg/kg compound is determined on day 5 for P388 tumor cells
Format: functional
Here, each record is paired with measured BWD data.
Value Type: BWD (g)

> print(dat)
                               entry.smiles  endpoint.value
1  CC(C)NC(=O)OCc1ncn(-c2ccccc2)c1COC(=O)NC(C)C             0.6
2  CNC(=O)OCc1nc(SC)n(-c2ccccc2)c1COC(=O)NC            -1.6
3  CSc1nc(COC(=O)NC(C)C)c(COC(=O)NC(C)C)n1C            -1.2
4  CSc1nc(COC(=O)NC(C)C)c(COC(=O)NC(C)C)n1-c1ccccc1              -2
5  CSc1nc(COC(=O)NC(C)C)c(COC(=O)NC(C)C)n1Cc1ccccc1            -0.3
6  CNC(=O)OCc1nc(SC)n(Cc2ccccc2)c1COC(=O)NC             0.4
